- ASSAYED SYSTEM: T1, TNFR1 (Homo sapiens, UniProt P19438)
- T1 chain: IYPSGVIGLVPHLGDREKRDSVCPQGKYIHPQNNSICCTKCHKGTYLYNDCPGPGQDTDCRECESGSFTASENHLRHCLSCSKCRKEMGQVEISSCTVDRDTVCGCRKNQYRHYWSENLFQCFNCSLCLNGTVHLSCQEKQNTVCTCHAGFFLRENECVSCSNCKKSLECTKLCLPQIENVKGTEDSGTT
- ASSAY SUMMARY: yeast display SC50
OUTCOME MEASURE: apparent Kd (screen) (nM)

{"BINDER": "L40S (designed binder) SMEEEVEKAAKEYEKKKKEAIEKHLEKLKAKDKEAAERFSKELEEAAKEYAKDEAKTMSEEEAKRRAKKYKEKVLLSELSEEEQKEIKEAEEKLVRTILKYVEEAAK", "OUTCOME MEASURE": "apparent Kd (screen)", "EXPERIMENTAL RESULT": 0.446}
{"BINDER": "E82H (designed binder) SMEEEVEKAAKEYEKKKKEAIEKHLEKLKAKDKEAAERFLKELEEAAKEYAKDEAKTMSEEEAKRRAKKYKEKVLLSELSEHEQKEIKEAEEKLVRTILKYVEEAAK", "OUTCOME MEASURE": "apparent Kd (screen)", "EXPERIMENTAL RESULT": 0.446}
{"BINDER": "R66Y (designed binder) SMEEEVEKAAKEYEKKKKEAIEKHLEKLKAKDKEAAERFLKELEEAAKEYAKDEAKTMSEEEAKRYAKKYKEKVLLSELSEEEQKEIKEAEEKLVRTILKYVEEAAK", "OUTCOME MEASURE": "apparent Kd (screen)", "EXPERIMENTAL RESULT": 13.8}

P = A67Q (designed binder) SMEEEVEKAAKEYEKKKKEAIEKHLEKLKAKDKEAAERFLKELEEAAKEYAKDEAKTMSEEEAKRRQKKYKEKVLLSELSEEEQKEIKEAEEKLVRTILKYVEEAAK
Q = Y70R (designed binder) SMEEEVEKAAKEYEKKKKEAIEKHLEKLKAKDKEAAERFLKELEEAAKEYAKDEAKTMSEEEAKRRAKKRKEKVLLSELSEEEQKEIKEAEEKLVRTILKYVEEAAK
R = Q84N (designed binder) SMEEEVEKAAKEYEKKKKEAIEKHLEKLKAKDKEAAERFLKELEEAAKEYAKDEAKTMSEEEAKRRAKKYKEKVLLSELSEEENKEIKEAEEKLVRTILKYVEEAAK
S = K15M (designed binder) SMEEEVEKAAKEYEMKKKEAIEKHLEKLKAKDKEAAERFLKELEEAAKEYAKDEAKTMSEEEAKRRAKKYKEKVLLSELSEEEQKEIKEAEEKLVRTILKYVEEAAK
Output the entries ranked by apparent Kd (screen) from maximum down to minimum. When ranking, write the labels in the order the request describes.
P, Q, R, S
